experimental.target: Mitogen-activated protein kinase 14 (Homo sapiens)
assay.summary: Inhibition of human MAP p38-alpha kinase in vitro.
readout: IC50 (nM)

| line.notation | experimental.target | IC50 / nM |
| --- | --- | --- |
| Cn1cnc2c(N(C(N)=O)c3c(F)cccc3F)nc(-c3ccc(F)cc3F)nc21 | Mitogen-activated protein kinase 14 (Homo sapiens) | 26 |
| Cn1cnc2c(N(C(N)=O)c3c(F)cccc3F)nc(-c3cccc(F)c3)nc21 | Mitogen-activated protein kinase 14 (Homo sapiens) | 5000 |
| Cn1cnc2c(N(C(N)=O)c3c(F)cccc3F)nc(-c3ccc(F)cc3)nc21 | Mitogen-activated protein kinase 14 (Homo sapiens) | 1000 |

[1] Cc1cc(F)ccc1-c1nc(N(C(N)=O)c2ccc(F)cc2)c2ncn(C)c2n1
[2] Cc1cc(F)ccc1-c1nc(N(C(N)=O)c2ccc(Cl)cc2)c2ncn(C)c2n1
Between 1 and 2 , whose recorded IC50 is greater? Please respond with the label that marks your chosen entry.
2

[a] Cn1cnc2c(N(C(N)=O)c3c(F)cccc3F)nc(-c3cccc(Cl)c3)nc21
[b] Cc1cccc(-c2nc(N(C(N)=O)c3c(F)cccc3F)c3ncn(C)c3n2)c1
Between a and b , whose recorded IC50 is greater? Please respond with the label that marks your chosen entry.
a

* * *

assay.summary: Aqueous solubility at pH 7.4
Format: physicochemical
readout: solubility (µM)
// units = µM; emit number, no label

solubility lookup needed for `Cn1cnc2c(N(C(N)=O)c3c(F)cccc3F)nc(-c3ccccc3F)nc21` , thanks.
1

* * *

experimental.target: Mitogen-activated protein kinase 14 (Homo sapiens)
assay.summary: Inhibition of human MAP p38-alpha kinase in vitro.
pIC50: −log10 of the molar value.
readout: pIC50

For orientation, consider the following solved cases.
| line.notation | experimental.target | pIC50 |
| --- | --- | --- |
| Cc1ccc(-c2nc(N(C(N)=O)c3c(F)cccc3F)c3ncn(C)c3n2)cc1 | Mitogen-activated protein kinase 14 (Homo sapiens) | 5.68 |
| CN(C)CCn1cnc2c(N(C(N)=O)c3c(F)cccc3F)nc(-c3ccccc3F)nc21 | Mitogen-activated protein kinase 14 (Homo sapiens) | 7.09 |
| Cc1cc(F)ccc1-c1nc(N(C(N)=O)c2c(F)cccc2F)c2ncn(C)c2n1 | Mitogen-activated protein kinase 14 (Homo sapiens) | 6.89 |
| Cc1ccccc1-c1nc(N(C(N)=O)c2c(F)cccc2F)c2ncn(C)c2n1 | Mitogen-activated protein kinase 14 (Homo sapiens) | 6.85 |
| Cn1cnc2c(N(C(N)=O)c3c(F)cccc3F)nc(-c3ccccc3)nc21 | Mitogen-activated protein kinase 14 (Homo sapiens) | 6.29 |
| Cc1cc(F)ccc1-c1nc(N(C(N)=O)c2c(F)cc(F)cc2F)c2ncn(C)c2n1 | Mitogen-activated protein kinase 14 (Homo sapiens) | 6.79 |
| NC(=O)N(c1c(F)cccc1F)c1nc(-c2ccccc2F)nc2c1ncn2Cc1ccccc1 | Mitogen-activated protein kinase 14 (Homo sapiens) | 7.80 |

[1] Cc1cc(F)ccc1-c1nc(N(C(N)=O)c2ccccc2Cl)c2ncn(C)c2n1
[2] Cn1cnc2c(N(C(N)=O)c3c(F)cccc3F)nc(-c3ccccc3Cl)nc21
Problem: Given the entries 1 and 2 , determine which has the lower reported pIC50. Please respond with the label that marks your chosen entry.
1

* * *

experimental.target: Mitogen-activated protein kinase 14 (Homo sapiens, UniProt Q16539)
Sequence (Q16539 whole entry): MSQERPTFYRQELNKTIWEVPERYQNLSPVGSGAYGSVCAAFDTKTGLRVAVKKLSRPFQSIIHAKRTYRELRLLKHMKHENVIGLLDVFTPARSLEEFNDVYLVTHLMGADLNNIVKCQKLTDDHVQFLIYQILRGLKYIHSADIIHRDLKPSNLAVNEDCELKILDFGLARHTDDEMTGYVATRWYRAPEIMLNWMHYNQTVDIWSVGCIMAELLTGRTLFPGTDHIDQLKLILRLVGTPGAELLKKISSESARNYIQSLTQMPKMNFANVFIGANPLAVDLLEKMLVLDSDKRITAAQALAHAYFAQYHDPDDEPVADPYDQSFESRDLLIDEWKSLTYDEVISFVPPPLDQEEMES
assay.summary: Inhibition of human MAP p38-alpha kinase in vitro.
pIC50: −log10 of the molar value.
// reported pIC50 for each item listed

| line.notation | experimental.target | readout | val |
| --- | --- | --- | --- |
| COc1ccccc1N(C(N)=O)c1nc(-c2ccc(F)cc2C)nc2c1ncn2C | Mitogen-activated protein kinase 14 (Homo sapiens, UniProt Q16539) | pIC50 | < 4.78 |

pIC50 lookup needed for `Cn1cnc2c(N(C(N)=O)c3c(F)cccc3F)nc(-c3cc(F)cc(F)c3)nc21` , thanks.
< 4.78

Also `Cn1cnc2c(N(C(N)=O)c3c(F)cccc3F)nc(-c3ccccc3F)nc21` , if possible.
7.44
